Data origin, for the record: patent US20040229298A1

assayed target: GST-DLG2 PDZ domain 3 (human)
protocol details: Matrix/G assay ELISA, E6 peptide titrated on GST-PDZ
Ends that are not written are not given here.
test readout: pEC50
// pEC50: -log10(molar conc.)

QUERY: Fill in reported pEC50 for this entry: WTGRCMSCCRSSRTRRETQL (not fully specified; cysteine pairing not given here) [HPV16 E6 C-terminal PDZ ligand peptide (20 mer, biotinylated), P03126 139-158]
RESULT: 5.80
